Biological target: human α9α10-nAChR (Homo sapiens, UniProt Q9GZZ6+Q9UGM1)
Sequence (Q9UGM1 26-479 limits assumed): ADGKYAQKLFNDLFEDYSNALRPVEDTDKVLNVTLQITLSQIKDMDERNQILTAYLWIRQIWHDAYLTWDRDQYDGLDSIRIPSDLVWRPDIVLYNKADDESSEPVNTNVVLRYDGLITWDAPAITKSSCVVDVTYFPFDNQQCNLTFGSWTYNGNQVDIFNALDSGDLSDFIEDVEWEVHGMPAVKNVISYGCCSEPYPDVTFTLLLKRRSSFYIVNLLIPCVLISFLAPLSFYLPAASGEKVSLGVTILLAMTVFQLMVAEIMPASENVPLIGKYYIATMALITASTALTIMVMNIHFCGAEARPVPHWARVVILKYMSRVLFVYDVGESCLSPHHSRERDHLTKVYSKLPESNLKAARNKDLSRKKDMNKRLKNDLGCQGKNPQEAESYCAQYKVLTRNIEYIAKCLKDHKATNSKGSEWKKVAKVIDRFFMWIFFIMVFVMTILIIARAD
Sequence (Q9GZZ6 25-450): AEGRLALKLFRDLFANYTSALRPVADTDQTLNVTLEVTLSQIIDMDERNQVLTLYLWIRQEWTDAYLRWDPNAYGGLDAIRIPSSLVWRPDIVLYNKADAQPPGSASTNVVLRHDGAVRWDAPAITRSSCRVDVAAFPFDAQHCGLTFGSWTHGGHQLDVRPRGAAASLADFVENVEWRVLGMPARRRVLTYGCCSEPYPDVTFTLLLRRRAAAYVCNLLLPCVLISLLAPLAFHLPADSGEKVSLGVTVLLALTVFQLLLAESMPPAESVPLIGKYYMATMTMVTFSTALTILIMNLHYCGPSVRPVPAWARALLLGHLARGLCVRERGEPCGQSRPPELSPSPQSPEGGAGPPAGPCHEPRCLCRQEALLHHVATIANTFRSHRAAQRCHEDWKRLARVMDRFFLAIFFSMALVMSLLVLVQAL
Assay: Two-electrode voltage clamp, antagonism of currents activated by 1 mM ACh, test compound coapplied, X. laevis oocytes (α9:α10 cRNA 9:1)
Settings: coapplied with 1 mM ACh, up to 100 μM; 95% confidence interval in parentheses
Parameter: IC50. Scope: all listed entries.

- COMPOUND: "CC[N+](CC)(CC)CCOc1ccc(-c2ccc3cc[nH]c3c2)cc1.[I-] [Compound 30]"
  ASSAY_SYSTEM: "human α9α10-nAChR (Homo sapiens, UniProt Q9GZZ6+Q9UGM1)"
  UNITS_SYMBOL: "µM"
  IC50: 6.46
- COMPOUND: "CC[N+](CC)(CC)CCOc1ccc(CCc2ccccc2)cc1.[I-] [Compound 6]"
  ASSAY_SYSTEM: "human α9α10-nAChR (Homo sapiens, UniProt Q9GZZ6+Q9UGM1)"
  UNITS_SYMBOL: "µM"
  IC50: 9.12
- COMPOUND: "CC[N+](CC)(CC)CCOc1ccc(-c2nc3ccccc3[nH]2)cc1 [Compound 29]"
  ASSAY_SYSTEM: "human α9α10-nAChR (Homo sapiens, UniProt Q9GZZ6+Q9UGM1)"
  UNITS_SYMBOL: "µM"
  IC50: 202
- COMPOUND: "CC[N+](CC)(CC)CCOc1ccc(NC(=O)c2ccccc2)cc1 [Compound 25]"
  ASSAY_SYSTEM: "human α9α10-nAChR (Homo sapiens, UniProt Q9GZZ6+Q9UGM1)"
  UNITS_SYMBOL: "µM"
  IC50: 115
- COMPOUND: "C[N+]1(C)CC[C@@H](Oc2ccc(-c3ccc4[nH]ccc4c3)cc2)C1.[I-] [Compound 33]"
  ASSAY_SYSTEM: "human α9α10-nAChR (Homo sapiens, UniProt Q9GZZ6+Q9UGM1)"
  UNITS_SYMBOL: "µM"
  IC50: 15.9
- COMPOUND: "CC[N+](CC)(CC)CCOc1ccc(-c2ccc3[nH]ccc3c2)cc1.[I-] [Compound 31]"
  ASSAY_SYSTEM: "human α9α10-nAChR (Homo sapiens, UniProt Q9GZZ6+Q9UGM1)"
  UNITS_SYMBOL: "µM"
  IC50: 8.13
- COMPOUND: "CC[N+](CC)(CC)CCOc1ccc(-c2nc3ccccc3o2)cc1.[I-] [Compound 28]"
  ASSAY_SYSTEM: "human α9α10-nAChR (Homo sapiens, UniProt Q9GZZ6+Q9UGM1)"
  UNITS_SYMBOL: "µM"
  IC50: 72.4
- COMPOUND: "CC[N+](CC)(CC)CCOc1ccc(C(=O)Nc2ccccc2)cc1 [Compound 26]"
  ASSAY_SYSTEM: "human α9α10-nAChR (Homo sapiens, UniProt Q9GZZ6+Q9UGM1)"
  UNITS_SYMBOL: "µM"
  IC50: 75.9
- COMPOUND: "CC[N+](CC)(CC)CCOc1ccc(/N=N/c2ccccc2)cc1.[I-] [Compound 27]"
  ASSAY_SYSTEM: "human α9α10-nAChR (Homo sapiens, UniProt Q9GZZ6+Q9UGM1)"
  UNITS_SYMBOL: "µM"
  IC50: 15.8
